# SYSTEM TESTED: EGFR (human)
# ASSAY SUMMARY: radiometric filter-binding kinase assay, Kinase HotSpot
# CONDITION INFO: compound 0.5 µM; ATP 10 µM
PROPERTY LABEL: residual activity
Reply with the number, then its unit.

>>> result("CC(=O)c1ccc(N2CCOCC2)cc1O")
"97.4%"
>>> result("Nc1ccc2ncnc(NCCc3ccc(Oc4ccccc4)cc3)c2c1")
"112%"
>>> result("CC[n+]1c(/C=C/N(C)c2ccccc2)n(-c2ccccc2)c2ccc(-c3nc4ccccc4s3)cc21")
"103%"
>>> result("Nc1cccc(-c2cc3c(Oc4cccc(O)c4)ncnc3[nH]2)c1")
"7.89%"
>>> result("Cc1ccc(S(=O)(=O)/C=C/C#N)cc1")
"97.5%"

// query Recall the recorded residual activity for Oc1cccc(-c2nc(N3CCOCC3)c3oc4ncccc4c3n2)c1 with EGFR (human) and state it.
// result 83.8%

----------
The entries below are paired with their reported residual activity.
# SYSTEM TESTED: CDK9 CCNT1 (human) (UniProt P50750+O60563)
# Sequence (O60563 whole entry, looked up): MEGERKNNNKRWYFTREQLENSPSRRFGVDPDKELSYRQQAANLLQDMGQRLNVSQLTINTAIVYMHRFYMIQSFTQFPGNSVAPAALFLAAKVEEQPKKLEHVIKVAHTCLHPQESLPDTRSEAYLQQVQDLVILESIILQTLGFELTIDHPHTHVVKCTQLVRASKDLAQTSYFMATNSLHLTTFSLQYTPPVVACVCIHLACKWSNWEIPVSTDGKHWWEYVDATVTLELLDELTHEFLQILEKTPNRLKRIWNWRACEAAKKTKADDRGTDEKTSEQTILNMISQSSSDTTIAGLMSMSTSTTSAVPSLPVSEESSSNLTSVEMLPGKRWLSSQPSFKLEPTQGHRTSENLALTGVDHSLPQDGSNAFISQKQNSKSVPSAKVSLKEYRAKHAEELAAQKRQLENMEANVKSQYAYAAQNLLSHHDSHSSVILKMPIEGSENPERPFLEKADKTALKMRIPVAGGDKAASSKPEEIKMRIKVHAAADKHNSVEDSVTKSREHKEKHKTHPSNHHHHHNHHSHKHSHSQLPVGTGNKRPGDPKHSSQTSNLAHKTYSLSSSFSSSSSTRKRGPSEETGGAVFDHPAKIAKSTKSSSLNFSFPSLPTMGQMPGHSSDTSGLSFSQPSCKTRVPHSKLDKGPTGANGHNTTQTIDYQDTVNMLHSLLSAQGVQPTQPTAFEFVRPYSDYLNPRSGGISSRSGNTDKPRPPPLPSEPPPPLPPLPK
# Sequence (P50750 whole entry, looked up): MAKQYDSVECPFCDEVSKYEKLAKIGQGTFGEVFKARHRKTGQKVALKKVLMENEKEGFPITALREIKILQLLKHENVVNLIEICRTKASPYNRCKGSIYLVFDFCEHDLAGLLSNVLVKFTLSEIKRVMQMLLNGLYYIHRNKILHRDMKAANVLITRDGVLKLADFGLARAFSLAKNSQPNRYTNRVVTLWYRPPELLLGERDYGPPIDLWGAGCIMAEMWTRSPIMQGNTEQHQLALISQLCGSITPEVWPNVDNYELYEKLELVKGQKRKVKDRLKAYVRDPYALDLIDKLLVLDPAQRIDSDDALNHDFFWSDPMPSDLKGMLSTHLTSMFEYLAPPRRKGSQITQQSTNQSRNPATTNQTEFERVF
# ASSAY SUMMARY: radiometric filter-binding kinase assay, Kinase HotSpot
# CONDITION INFO: compound 0.5 µM; ATP 10 µM
Reply numerically in %, unit not repeated.

>>> numeric_result("O=C1NC(=O)/C(=C/c2ccc3c(c2)OC(F)(F)O3)S1")
98.7
>>> numeric_result("Nc1ccc2ncnc(NCCc3ccc(Oc4ccccc4)cc3)c2c1")
101
>>> numeric_result("CC(=O)c1ccc(N2CCOCC2)cc1O")
100

// query Could you share which residual activity value was measured for COc1ccc2c(c[n+](C)c3c4cc5c(cc4ccc23)OCO5)c1OC ?
// result 96.4

// query Record: O=C1Nc2ccc(Cl)cc2/C1=C/c1cc(Cl)c(O)c(Cl)c1
// result 95.2

// query Record: O=C(Nc1cccc(Nc2nccc(Nc3cccc(C(F)(F)F)c3)n2)c1)C1CC1
// result 86.8

// query Record: CCN(CC)CCNC(=O)c1c(C)[nH]c(/C=C2\C(=O)Nc3ccc(F)cc32)c1C
// result 88.7

// query Record: CCCC(=O)Oc1ccc2[nH]c(C(=O)c3cc4ccccc4[nH]3)cc2c1
// result 105

// query Record: COC[C@H]1OC(=O)c2coc3c2[C@@]1(C)C1=C(C3=O)[C@@H]2CCC(=O)[C@@]2(C)C[C@H]1OC(C)=O
// result 93.7

// query Record: CC(C)N(CCC(=O)c1ccc2ccccc2c1)Cc1ccccc1
// result 96.4

----------
# SYSTEM TESTED: VRK1 (human) (UniProt Q99986)
# Sequence (Q99986 whole entry, looked up): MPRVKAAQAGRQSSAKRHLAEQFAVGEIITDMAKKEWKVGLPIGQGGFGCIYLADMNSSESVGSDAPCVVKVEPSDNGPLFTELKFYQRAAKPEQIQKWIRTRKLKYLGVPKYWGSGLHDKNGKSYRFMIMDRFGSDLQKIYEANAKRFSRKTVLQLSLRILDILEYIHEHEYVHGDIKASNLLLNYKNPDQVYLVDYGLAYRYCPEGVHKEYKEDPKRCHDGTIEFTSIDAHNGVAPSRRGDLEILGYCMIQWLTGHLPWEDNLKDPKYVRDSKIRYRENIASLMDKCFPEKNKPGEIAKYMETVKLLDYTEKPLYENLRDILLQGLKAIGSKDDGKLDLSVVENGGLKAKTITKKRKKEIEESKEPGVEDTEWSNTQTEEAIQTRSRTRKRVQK
# ASSAY SUMMARY: radiometric filter-binding kinase assay, Kinase HotSpot
# CONDITION INFO: compound 0.5 µM; ATP 10 µM
PROPERTY LABEL: residual activity (%)
Reply numerically in %, unit not repeated.

Completed entries (count: 5):
>>> numeric_result("CC[n+]1c(/C=C/N(C)c2ccccc2)n(-c2ccccc2)c2ccc(-c3nc4ccccc4s3)cc21")
90.9
>>> numeric_result("COc1cc2ncnc(Nc3cccc(Cl)c3)c2cc1OC")
105
>>> numeric_result("c1ccc(-c2n[nH]cc2-c2ccnc3ccccc23)nc1")
92.6
>>> numeric_result("Oc1cccc(-c2nc(N3CCOCC3)c3oc4ncccc4c3n2)c1")
98.4
>>> numeric_result("Cc1ccc(NC2=CC(=O)c3sc(C)nc3C2=O)cc1")
108

// query Could you share which residual activity value was measured for CNC(=O)c1cc(Oc2ccc(NC(=O)Nc3ccc(Cl)c(C(F)(F)F)c3)cc2)ccn1 ?
// result 99.3

// query Record: N#CC(C#N)=C(N)/C(C#N)=C/c1ccc(O)cc1
// result 103

// query Record: c1ccc(-c2n[nH]c3c2oc2ccccc23)cc1
// result 83.1

// query Record: O=C1NC(=O)C(c2cn(CCCn3ccnc3)c3ccccc23)=C1Nc1ccccc1
// result 98.7

// query Record: Cc1ccc(S(=O)(=O)/C=C/C#N)cc1
// result 105

// query Record: O=S(=O)(c1cccc2cnccc12)N1CCCNCC1
// result 87.6

meta.source: the kinase profiling compilation of Christmann-Franck et al. (2016)
